Listed below: IC50 values for each entry.
molecular target: PI3Kγ (Homo sapiens); construct: host or cells: THP-1; assay: PI3Kγ cellular assay in THP-1 cells (AKT pS473 AlphaLISA); assay type: cell-based; conditions: Table 2, rhMCP-1 stimulated AKT pS473, read-out: cellular potency (PI3Kγ IC50)
Sequence (P48736 whole entry): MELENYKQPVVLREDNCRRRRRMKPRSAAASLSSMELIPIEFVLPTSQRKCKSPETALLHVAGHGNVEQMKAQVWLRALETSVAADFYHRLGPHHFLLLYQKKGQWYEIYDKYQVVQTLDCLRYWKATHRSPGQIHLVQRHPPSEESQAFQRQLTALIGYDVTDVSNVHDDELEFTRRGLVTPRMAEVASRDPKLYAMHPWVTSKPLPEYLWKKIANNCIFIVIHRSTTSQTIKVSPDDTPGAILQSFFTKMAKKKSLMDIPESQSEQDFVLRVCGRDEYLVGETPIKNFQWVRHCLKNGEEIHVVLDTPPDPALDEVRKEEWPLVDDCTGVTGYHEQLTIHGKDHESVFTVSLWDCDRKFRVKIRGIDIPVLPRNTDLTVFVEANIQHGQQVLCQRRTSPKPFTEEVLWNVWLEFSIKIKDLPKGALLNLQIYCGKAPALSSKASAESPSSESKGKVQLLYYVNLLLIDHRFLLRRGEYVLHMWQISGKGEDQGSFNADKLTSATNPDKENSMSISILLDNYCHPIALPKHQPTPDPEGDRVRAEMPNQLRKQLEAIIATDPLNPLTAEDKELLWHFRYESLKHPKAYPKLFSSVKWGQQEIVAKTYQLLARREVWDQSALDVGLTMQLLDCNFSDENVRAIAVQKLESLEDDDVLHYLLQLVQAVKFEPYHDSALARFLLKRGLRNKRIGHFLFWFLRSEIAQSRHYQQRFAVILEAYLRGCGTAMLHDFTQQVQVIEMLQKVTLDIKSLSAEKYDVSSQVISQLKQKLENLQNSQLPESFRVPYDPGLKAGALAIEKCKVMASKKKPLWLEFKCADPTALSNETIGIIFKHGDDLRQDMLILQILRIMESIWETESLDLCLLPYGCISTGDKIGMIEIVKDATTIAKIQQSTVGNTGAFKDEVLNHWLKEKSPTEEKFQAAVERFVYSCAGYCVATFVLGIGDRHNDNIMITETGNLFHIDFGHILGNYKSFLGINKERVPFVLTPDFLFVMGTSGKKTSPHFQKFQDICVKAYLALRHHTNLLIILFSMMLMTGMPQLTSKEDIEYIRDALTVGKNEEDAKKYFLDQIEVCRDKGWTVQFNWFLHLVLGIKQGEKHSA

Q: IC50 lookup needed for Cc1cc(-c2ccn3nc(N)c(C(=O)NC(C)CO)c3n2)cc2c1C(=O)N([C@H]1CCC[C@H](O)C1)C2 (stereo partly shown) , thanks.
Result: > 1000 nM

Q: IC50 lookup needed for Cc1cc(-c2ccn3nc(N)c(C(=O)N4CCN(C)CC4)c3n2)cc2c1C(=O)N(C(C)C1CC1)C2 (stereo not shown) , thanks.
Result: > 1000 nM

Q: IC50 lookup needed for Cc1cc(-c2ccn3nc(N)c(C(=O)N[C@H]4Cc5ccccc5[C@@H]4O)c3n2)cc2c1C(=O)N([C@@H](C)C1CC1)C2 , thanks.
Result: > 1000 nM

Let us examine a further case.
Q: IC50 lookup needed for Cc1cc(-c2ccn3nc(N)c(C(=O)NC4CC4)c3n2)cc2c1C(=O)N([C@@H](C1CC1)C(F)(F)F)C2 , thanks.
Result: 100 to 1000 nM
